These data points were gathered from patent US20180016324A1.

For each entry below, report its koff value.
- TESTED_SYSTEM: T1, ZIKV (prM80E) with a C-terminal myc-myc-hexahistidine tag (Zika virus, UniProt A0A024B7W1 104-694)
- T1 construct: also called ZIKV (prM80E)-mmH; ZIKV-mmH
- ASSAY_METHOD_TEXT: SPR, mAb captured, 37C
Answers are plain numbers, in s⁻¹.

Take a look at these entries with their results.
H4H25704N (antibody, V domains shown) VH: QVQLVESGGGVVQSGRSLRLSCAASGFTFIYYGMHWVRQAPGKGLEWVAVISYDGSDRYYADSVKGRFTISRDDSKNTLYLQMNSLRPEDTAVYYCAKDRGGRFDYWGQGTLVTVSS VL: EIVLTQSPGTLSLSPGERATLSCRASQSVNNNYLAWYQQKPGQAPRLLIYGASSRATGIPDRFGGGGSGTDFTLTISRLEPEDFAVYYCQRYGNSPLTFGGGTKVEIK; 0.0012
H4H25703N (antibody, V domains shown) VH: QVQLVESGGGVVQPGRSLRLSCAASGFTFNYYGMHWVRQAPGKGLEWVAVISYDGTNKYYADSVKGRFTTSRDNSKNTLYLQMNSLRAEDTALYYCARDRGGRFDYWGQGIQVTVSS VL: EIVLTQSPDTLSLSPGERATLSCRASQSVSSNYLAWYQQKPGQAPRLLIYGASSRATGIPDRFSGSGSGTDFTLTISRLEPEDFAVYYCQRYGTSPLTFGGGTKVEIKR; 0.00177

Moving on to another binder below.
Q: Returns the measured koff for the input binder. Input: H4H25587P (antibody, V domains shown) VH: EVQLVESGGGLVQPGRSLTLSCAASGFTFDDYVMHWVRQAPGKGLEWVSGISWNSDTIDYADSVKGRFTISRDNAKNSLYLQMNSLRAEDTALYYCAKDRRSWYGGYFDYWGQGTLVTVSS VL: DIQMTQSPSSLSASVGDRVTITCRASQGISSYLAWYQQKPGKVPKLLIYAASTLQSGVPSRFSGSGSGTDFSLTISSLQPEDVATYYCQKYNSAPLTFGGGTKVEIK
Ans: 0.0145
